- Test system: MDA-MB-231 cells
- Test Method Notes: Cell proliferation assay (CellTiter-Glo), MDA-MB-231
- Assay type: cell-based
- Test Context: Homo sapiens, MDA-MB-231, 72 h, 72 h treatment, Celltiter-Glo luminescence
Measured Quantity: IC50 (nM)

Molecule	Measured Quantity	Quantity Unit	Observed Measurement
C[C@@H]1CN(CC(=O)N2CC(C)(C)c3c2cc(Cc2ccc(F)cc2)c2nn(CC(C)(C)O)c(=O)n32)[C@@H](CN2C[C@H]3C[C@@H]2CO3)CN1 [Compound 284]	IC50	nM	250
C[C@@H]1CN(CC(=O)N2CC(C)(C)c3c2cc(Cc2ccc(F)cc2)c2cc(C(F)(F)F)nn32)[C@@H](CN2CCOC[C@H]2C)CN1 [Compound 150]	IC50	nM	490
C[C@@H]1CN(CC(=O)N2CC(C)(C)c3c2cc(Cc2ccc(F)cc2)c2ncnn32)[C@@H](CN2CCNC(=O)[C@H]2C)CN1 [Compound 191]	IC50	nM	80
Cc1nccn1C[C@H]1CN[C@H](C)CN1CC(=O)N1CC(C)(C)c2c1cc(Cc1ccc(F)cc1)c1ncnn21 [Compound 91]	IC50	nM	80
C[C@@H]1CN(CC(=O)N2CC(C)(C)c3c2cc(Cc2ccc(F)cc2)c2ncc(Cl)n32)[C@@H](CN2CCOC[C@H]2C)CN1 [Compound 118]	IC50	nM	120

a = C[C@@H]1CN(CC(=O)N2CC(C)(C)c3c2cc(Cc2ccc(F)cc2)c2nc(C(=O)N(C)C)nn32)[C@@H](CN2CCOC[C@H]2C)CN1 [Compound 251]
b = C[C@@H]1CN(CC(=O)N2CC(C)(C)c3c2cc(Cc2ccc(F)cc2)c2nc(N4CCNC4=O)nn32)[C@@H](CN2CCOC[C@H]2C)CN1 [Compound 248]
c = CC(=O)N1CCN(C[C@H]2CN[C@H](C)CN2CC(=O)N2CC(C)(C)c3c2cc(Cc2ccc(F)cc2)c2nn(CC(C)(C)O)c(=O)n32)[C@H](C)C1 [Compound 282]
d = C[C@@H]1CN(CC(=O)N2CC(C)(C)c3c2cc(Cc2ccc(F)cc2)c2nn(CC(C)(C)O)c(=O)n32)[C@@H](CN2CCN(CC(F)(F)F)C[C@H]2C)CN1 [Compound 266]
Sequence the entries by IC50, beginning with the highest number. Answer by naming the labels in the order asked.
c, a, b, d
(c: 660 nM, a: 130 nM, b: 47 nM, d: 16 nM)

====

- Tested on: MDA-MB-231 cells
- Test Method Notes: Cell proliferation assay (CellTiter-Glo), MDA-MB-231
- Format: cell-based
- Test Context: Homo sapiens, MDA-MB-231, 72 h, 72 h treatment, Celltiter-Glo luminescence
Measured Quantity: IC50 (nM)

For orientation, consider the following solved cases.
Molecule	IC50 / nM
CNC(=O)c1nc2c(Cc3ccc(F)cc3)cc3c(n2n1)C(C)(C)CN3C(=O)CN1C[C@@H](C)NC[C@@H]1CN1CCOC[C@H]1C [Compound 255]	580
C[C@@H]1CN(CC(=O)N2CC(C)(C)c3c2cc(Sc2ccc(F)cn2)c2ncnn32)[C@@H](CN2CCOC[C@H]2C)CN1 [Compound 211]	150

A = Cc1ncc2c(Cc3ccc(F)cc3)cc3c(n12)C(C)(C)CN3C(=O)CN1C[C@@H](C)NC[C@@H]1CN1CCOC[C@H]1C [Compound 2]
B = CC(=O)N1CCN(C[C@H]2CN[C@H](C)CN2CC(=O)N2CC(C)(C)c3c2cc(Cc2ccc(F)cc2)c2nc(C(F)(F)F)cn32)[C@H](C)C1 [Compound 174]
C = C[C@@H]1CN(CC(=O)N2CC(C)(C)c3c2cc(Cc2ccc(F)cc2)c2nn(Cc4ncccc4F)c(=O)n32)[C@@H](CN2CCOC[C@H]2C)CN1 [Compound 220]
D = C[C@@H]1CN(CC(=O)N2CC(C)(C)c3c2cc(Cc2ccc(F)cc2)c2ncnn32)[C@@H](CN2CCN(CC#N)C[C@H]2C)CN1 [Compound 182]
Order by IC50, ascending. Answer by naming the labels in the order asked.
D, C, A, B

====

- Tested on: MDA-MB-231 cells
- Test Method Notes: Cell proliferation assay (CellTiter-Glo), MDA-MB-231
- Format: cell-based
- Test Context: Homo sapiens, MDA-MB-231, 72 h, 72 h treatment, Celltiter-Glo luminescence
Measured Quantity: IC50 (nM)

C[C@@H]1CN(CC(=O)N2CC(C)(C)c3c2cc(Cc2ccc(F)cc2)c2cnc(C4CCC4)n32)[C@@H](CN2CCOC[C@H]2C)CN1 50

a = C[C@@H]1CN(CC(=O)N2CC(C)(C)c3c2cc(Cc2ccc(F)cc2)c2nn(C4CNC4)c(=O)n32)[C@@H](CN2CCOC[C@H]2C)CN1
b = C[C@@H]1CN(CC(=O)N2CC(C)(C)c3c2cc(Cc2ccc(F)cc2)c2nc(C(C)(C)O)nn32)[C@@H](CN2CCOC[C@H]2C)CN1
I need your help: which of the pair a , b has higher IC50? Give the label of your selection.
b
(b: 190 nM, a: 41 nM)

====

- System: MDA-MB-231 cells
- Test Method Notes: Cell proliferation assay (CellTiter-Glo), MDA-MB-231
- Format: cell-based
- Test Context: Homo sapiens, MDA-MB-231, 72 h, 72 h treatment, Celltiter-Glo luminescence
pIC50: −log10 of the molar value.
Measured Quantity: pIC50

For orientation, consider the following solved cases.
Compound	pIC50
C[C@@H]1CN(CC(=O)N2CC(C)(C)c3c2cc(C(F)(F)C24CC(C(F)(F)F)(C2)C4)c2ncnn32)[C@@H](CN2CCOC[C@H]2C)CN1	6.82
Cc1nc2c(Cc3ccc(F)cc3)cc3c(n2n1)C(C)(C)CN3C(=O)CN1C[C@@H](C)NC[C@@H]1CN1CCOC[C@H]1C	7.44
C[C@@H]1CN(CC(=O)N2CC(C)(C)c3c2cc(Cc2ccc(F)cc2)c2nn(CC(C)(C)O)c(=O)n32)[C@@H](CN2CCOCC2(C)C)CN1	7.17
C[C@@H]1CN(CC(=O)N2CC(C)(C)c3c2cc(Cc2ccc(F)cc2)c2nn(Cc4cncnc4)c(=O)n32)[C@@H](CN2CCOC[C@H]2C)CN1	7.06
C[C@@H]1CN(CC(=O)N2CC(C)(C)c3c2cc(Cc2ccc(F)cc2)c2nc(N(C)C=O)nn32)[C@@H](CN2CCOC[C@H]2C)CN1	7.82
C[C@@H]1CN(CC(=O)N2CC(C)(C)c3c2cc(Cc2ccc(F)cc2)c2nn(CC(C)(C)O)c(=O)n32)[C@@H](CN2CC3CCC2CO3)CN1 (stereo partly drawn)	6.32
C[C@@H]1CN(CC(=O)N2CC(C)(C)c3c2cc(Cc2ccc(F)cc2)c2ncnn32)[C@@H](CN2CCC(F)(F)C[C@H]2C)CN1	7.06

a = CCOC(=O)c1cnn2c3c(cc(Cc4ccc(F)cc4)c12)N(C(=O)CN1C[C@@H](C)NC[C@@H]1CN1CCOC[C@H]1C)CC3(C)C
b = C[C@@H]1CN(CC(=O)N2CC(C)(C)c3c2cc(Cc2ccc(F)cc2F)c2nn(CC(C)(C)O)c(=O)n32)[C@@H](CN2CCOC[C@H]2C)CN1
c = C[C@@H]1CN(CC(=O)N2CC(C)(C)c3c2cc(Cc2ccc(F)cc2)c2nc(CF)cn32)[C@@H](CN2CCOC[C@H]2C)CN1
d = C[C@@H]1CN(CC(=O)N2CC(C)(C)c3c2cc(Cc2ccc(F)cc2)c2nc(-c4cncnc4)nn32)[C@@H](CN2CCOC[C@H]2C)CN1
e = C[C@@H]1CN(CC(=O)N2CC(C)(C)c3c2cc(Cc2ccc(F)cc2)c2nnc(C4CC4)n32)[C@@H](CN2CCOC[C@H]2C)CN1
Order by pIC50, ascending. Answer by naming the labels in the order asked.
a, e, c, d, b

====

- System: MDA-MB-231 cells
- Test Method Notes: Cell proliferation assay (CellTiter-Glo), MDA-MB-231
- Type: cell-based
- Test Context: Homo sapiens, MDA-MB-231, 72 h, 72 h treatment, Celltiter-Glo luminescence
Measured Quantity: IC50 (nM)

For orientation, consider the following solved cases.
Molecule	Test System	Quantity Unit	IC50
C[C@@H]1CN(CC(=O)N2CC(C)(C)c3c2cc(Cc2ccc(F)cc2)c2ncnn32)[C@@H](CN2Cc3cc(F)ccc3C2=O)CN1 [Compound 100]	MDA-MB-231 cells	nM	21
C[C@@H]1CN(CC(=O)N2CC(C)(C)c3c2cc(Cc2ccc(F)cc2)c2ncnn32)[C@@H](CN2Cc3cccc(F)c3C2=O)CN1 [Compound 207]	MDA-MB-231 cells	nM	20
C[C@@H]1CN(CC(=O)N2CC(C)(C)c3c2cc(Cc2ccc(F)cc2)c2ncnn32)[C@@H](CN2CCOC[C@H]2C)CN1 [Example 14]	MDA-MB-231 cells	nM	42
C[C@@H]1CN(CC(=O)N2CC(C)(C)c3c2cc(Cc2ccc(F)cc2)c2ncc(C#N)n32)[C@@H](CN2CCOC[C@H]2C)CN1 [Compound 111]	MDA-MB-231 cells	nM	42
C[C@@H]1CN(CC(=O)N2CC(C)(C)c3c2cc(Cc2ccc(F)cc2)c2nc(C#N)nn32)[C@@H](CN2CCOC[C@H]2C)CN1 [Compound 32]	MDA-MB-231 cells	nM	60
C[C@@H]1CN(CC(=O)N2CC(C)(C)c3c2cc(Cc2ccc(F)cc2)c2ccnn32)[C@@H](CN2CCOC[C@H]2C)CN1 [Compound 148]	MDA-MB-231 cells	nM	100
C[C@@H]1CN(CC(=O)N2CC(C)(C)c3c2cc(Cc2ccc(F)cc2)c2ncsc32)[C@@H](CN2CCOC[C@H]2C)CN1 [Example 27]	MDA-MB-231 cells	nM	260
Cc1nccn1C[C@H]1CN[C@H](C)CN1CC(=O)N1CC(C)(C)c2c1cc(Cc1ccc(F)cc1)c1nc(C(F)(F)F)cn21 [Compound 186]	MDA-MB-231 cells	nM	230

P = CCNC(=O)c1nc2c(Cc3ccc(F)cc3)cc3c(n2n1)C(C)(C)CN3C(=O)CN1C[C@@H](C)NC[C@@H]1CN1CCOC[C@H]1C [Compound 259]
Q = C[C@@H]1CN(CC(=O)N2CC(C)(C)c3c2cc(Cc2ccc(F)cc2F)c2nn(C(C)(C)CO)c(=O)n32)[C@@H](CN2CCOC[C@H]2C)CN1 [Compound 275]
Could you check which of P and Q has a smaller value for IC50? Give the label of your selection.
Q
